Test system: UO-31 renal
Experiment: NCI tumour cell line growth inhibition, 48 h
Classify as follows. Reported TGI greater than or equal to 20 µM: Yes. Reported TGI below: No.

Example entries and their recorded answers appear below.
{"columns": ["compound", "classAssignment"],
 "data": [
  ["CC1=C(C(=O)Nc2ccc(Cl)c(Cl)c2)C(c2cccc(Cl)c2)NC(=O)N1 (stereo not given)", "No"],
  ["CC(=O)OC[C@]1(C)CCCC2(C)C1CCC1C=C(C)[C@H]3CCC12C3 (stereo not given in full)", "Yes"],
  ["O=[N+]([O-])c1ccc(N=Nc2c(O)ccc3ccccc23)c([N+](=O)[O-])c1", "Yes"],
  ["COc1ccc(/C=C2\\CN(C)C/C(=C\\c3ccc(OC)cc3)C2=O)cc1", "Yes"],
  ["COc1cc2nc(-c3cccs3)nc(N3CCN(c4ccccc4C(F)(F)F)CC3)c2cc1OC", "Yes"]
]}

Q: Could you tell me if the measured TGI of CC1=CC[C@H](C(C)C)C(C(O)[C@@H](C)O[Si](c2ccccc2)(c2ccccc2)C(C)(C)C)C1=O (stereo not given in full) reaches 20 µM or more?
Result: Yes

Q: Further, for C1CCCCC2(CCCCCCCCC3(CCC1)OCCO3)OCCO2 ?
Result: No

Q: Further, for O=C1CC(=O)N(C(=O)c2nn(-c3ccc(Cl)cc3)cc2O)N1 ?
Result: Yes

Q: Further, for Nc1ccc2c(=O)cc(-c3cccs3)[nH]c2n1 ?
Result: Yes

Q: Further, for COc1ccc(-c2c3c(cc4cc5c(cc24)OCO5)C(=O)OC3)cc1OC ?
Result: No
